// data source = PubChem BioAssay (NCI)

- Test system: K-562 leukemia
- assay_explanation: NCI tumour cell line growth inhibition, 48 h

{"compound": "CC(Nc1ccc(S(=O)(=O)N=C(N)N)cc1)c1c2ccccc2nc2ccccc12 (stereo not drawn)", "TGI": "99.4 µM"}
{"compound": "Cc1cccc(C(C)(C)C)c1NC(=O)CC1C(=O)Nc2ccccc2S1(=O)=O (stereo not drawn)", "TGI": "13 µM"}
{"compound": "Cc1ccc(S(=O)(=O)NC2(C=O)CCCC3CCCCC32)cc1 (stereo not drawn)", "TGI": "> 100 µM"}
{"compound": "CC(=O)OC[C@@H](COC(=O)/C=C/c1ccc(O)cc1)OC1OC(CO)C(O)C(O)C1O (stereo partly drawn)", "TGI": "> 100 µM"}
{"compound": "COc1cc(NCCCN=C(N)NC(N)=NC(C)C)c2ncccc2c1", "TGI": "> 95.1 µM"}
{"compound": "COC1C(O)C(n2ncc3c(SC)nc(SC)nc32)OC1C(O)CO (stereo not drawn)", "TGI": "> 100 µM"}
{"compound": "O=C(Nc1ccncc1)C(=O)c1cn(S(=O)(=O)c2ccc(Cl)cc2)c2ccccc12", "TGI": "> 100 µM"}
{"compound": "CC(=O)O[C@H]1CC[C@@]2(C)C(=CC[C@@H]3[C@@H]2CC[C@]2(C)c4c(C)nn(-c5ccccc5)c4C[C@@H]32)C1", "TGI": "> 100 µM"}
